Data provenance: the supplement of paper PMC11208160

Procedure Details: recombinant barcode read abundance after kanamycin selection (control-corrected) (log10(CPM+1)); higher = more efficient recombination; sequences stand for … in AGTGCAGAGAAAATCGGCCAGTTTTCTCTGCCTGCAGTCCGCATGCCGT…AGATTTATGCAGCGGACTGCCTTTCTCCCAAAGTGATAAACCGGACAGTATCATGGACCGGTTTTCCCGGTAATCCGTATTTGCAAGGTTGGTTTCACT; site = the 11-nt target
Measured recombinant barcode read abundance (log10), listed per entry for reference.
Answer with the value's number alone.

Looking up TGCGGAGCTTGGGTTCTAACCTGTTGCCG (site TGCGGAGCTCG) , I see its recombinant barcode read abundance (log10) listed as 0.726

###

Procedure Details: recombinant UMI read abundance after kanamycin selection (control-corrected) (log10(CPM+1)); higher = more efficient recombination; extreme values may be limits of the assay; sequences stand for … in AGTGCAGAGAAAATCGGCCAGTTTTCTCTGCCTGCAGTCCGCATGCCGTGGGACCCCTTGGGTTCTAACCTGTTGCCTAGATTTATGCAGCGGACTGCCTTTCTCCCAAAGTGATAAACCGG…AGGTTGGTTTCACT; site = the 11-nt donor
Output MET for recombinant UMI read abundance (log10) not less than 0.2; output NOT MET otherwise.

Chain	Category Label
TGATACTCATGGACCGGTTTTCCCGGTAATCCGTATTTGCA (site TTATACTCTTG)	MET
CGATAGCCATGGACCGGTTTTCCCGGTAATCCGTATTTGCT (site CGATAGCCTAG)	MET
GAAAAACCATGGACCGGTTTTCCCGGTAATCCGTATTTGGT (site GATAAACCTAC)	NOT MET
ACACATCCATGGACCGGTTTTCCCGGTAATCCGTATTTGTC (site ACACATCCTGT)	MET
TGTTTCCCATGGACCGGTTTTCCCGGTAATCCGTATTTGTA (site TGTTGCCCTTA)	NOT MET
GATAGGTCATGGACCGGTTTTCCCGGTAATCCGTATTTGGA (site GATAGGTCTTC)	MET
CTACCATCATGGACCGGTTTTCCCGGTAATCCGTATTTGGT (site CTACCATCTAC)	NOT MET
CGCTGAGCATGGACCGGTTTTCCCGGTAATCCGTATTTGGT (site CGCTGAGCTAC)	MET

Please find the next sequence below.
Request: Could you please find out whether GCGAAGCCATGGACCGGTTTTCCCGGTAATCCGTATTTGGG (site GCGAAGCCTCC) has recombinant UMI read abundance (log10) that meets 0.2 or exceeds it?
Result: NOT MET

###

Listing of recorded recombinant barcode read abundance (log10) by entry.
Procedure Details: recombinant barcode read abundance after kanamycin selection (control-corrected) (log10(CPM+1)); higher = more efficient recombination; sequences stand for … in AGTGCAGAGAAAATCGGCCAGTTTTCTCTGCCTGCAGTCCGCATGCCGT…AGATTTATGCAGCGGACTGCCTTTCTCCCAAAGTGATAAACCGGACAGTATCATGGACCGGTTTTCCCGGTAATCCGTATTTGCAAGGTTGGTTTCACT; site = the 11-nt target
Would you mind answering with just the numeric figure?

Documented recombinant barcode read abundance (log10) of CTAGCAACTTGGGTTCTAACCTGTTGCTT (site CTAGCAACTAA) : 0.26

Form: sequence = CTCACACCTTGGGTTCTAACCTGTTGCAG (site TGTCATGCTAC) ; recombinant barcode read abundance (log10) = 0.331

Reported recombinant barcode read abundance (log10) ( AAGGTGTCTTGGGTTCTAACCTGTTGCCT (site AACGTGTCTAG) ) = 0.736

Lab note: GAACCTTCTTGGGTTCTAACCTGTTGCCT (site GAACGATCTAG) gave recombinant barcode read abundance (log10) of 0.0234

###

# recombinant barcode read abundance (log10) per record follows
Procedure Details: recombinant barcode read abundance after kanamycin selection (control-corrected) (log10(CPM+1)); higher = more efficient recombination; sequences stand for … in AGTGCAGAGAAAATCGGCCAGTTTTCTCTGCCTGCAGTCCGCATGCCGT…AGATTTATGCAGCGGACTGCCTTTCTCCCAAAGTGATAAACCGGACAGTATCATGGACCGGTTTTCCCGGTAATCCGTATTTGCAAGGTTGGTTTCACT; site = the 11-nt target
# respond with the number and nothing more

Value of measured recombinant barcode read abundance (log10) for the entry GATAGGACTTGGGTTCTAACCTGTTGCGT (site GATAGGACTAC) : 2.12

The value of recombinant barcode read abundance (log10) measured for the sequence GTGGAGGCTTGGGTTCTAACCTGTTGCCT (site ATGGCGGCTAG) turned out to be 0.371

Entry CGGAATCCTTGGGTTCTAACCTGTTGCAT (site CGGAATCCTAG) ; recombinant barcode read abundance (log10) = 0.29

The recorded recombinant barcode read abundance (log10) for entry GACTTGTCTTGGGTTCTAACCTGTTGCCT (site GACTTGTCTAG) equals 1.41

// field: recombinant barcode read abundance (log10); key: CTACAGACTTGGGTTCTAACCTGTTGCGA (site CTACAGACTTC) ; value = 2.73

Input GCATGACCTTGGGTTCTAACCTGTTGCAG (site GCATGACCTCT) . Output recombinant barcode read abundance (log10): 1.23

recombinant barcode read abundance (log10) reading for AAGTCCACTTGGGTTCTAACCTGTTGCTT (site TAGTCCACTTA) : 0.093

###

Let's look at some sequences and their measured recombinant UMI read abundance (log10).
Procedure Details: recombinant UMI read abundance after kanamycin selection (control-corrected) (log10(CPM+1)); higher = more efficient recombination; extreme values may be limits of the assay; sequences stand for … in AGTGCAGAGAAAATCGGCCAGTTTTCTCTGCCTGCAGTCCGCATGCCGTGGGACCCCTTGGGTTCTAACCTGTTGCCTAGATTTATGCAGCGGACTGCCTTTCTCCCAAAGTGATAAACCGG…AGGTTGGTTTCACT; site = the 11-nt donor
The answer should be a number; do not append a unit.

Chain	recombinant UMI read abundance (log10)
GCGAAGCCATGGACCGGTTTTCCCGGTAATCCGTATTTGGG (site GCAAAGCCTCC)	0.00547
CTAGGATCATGGACCGGTTTTCCCGGTAATCCGTATTTGGC (site CTAGGATCTGC)	2.55

Moving on to another sequence below.
Looking up CGTTAGACATGGACCGGTTTTCCCGGTAATCCGTATTTGCG (site CGTTAGACTCC) , I found its recombinant UMI read abundance (log10) recorded as 0.0162

###

Procedure Details: recombinant UMI read abundance after kanamycin selection (control-corrected) (log10(CPM+1)); higher = more efficient recombination; extreme values may be limits of the assay; sequences stand for … in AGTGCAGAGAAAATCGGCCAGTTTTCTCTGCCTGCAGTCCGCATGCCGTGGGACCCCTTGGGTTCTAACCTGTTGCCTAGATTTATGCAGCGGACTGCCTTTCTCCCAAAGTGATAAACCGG…AGGTTGGTTTCACT; site = the 11-nt donor
Each entry below carries its recorded recombinant UMI read abundance (log10).
Answer with a bare number; do not write a unit.

Known recombinant UMI read abundance (log10) results, listed for orientation:
Chain	Reported
TTGCCGGCATGGACCGGTTTTCCCGGTAATCCGTATTTGGC (site TCGCCGGCTGC)	0
GTTAGCACATGGACCGGTTTTCCCGGTAATCCGTATTTGGC (site GTTAGCACTGC)	2.11
GCGTCACCATGGACCGGTTTTCCCGGTAATCCGTATTTGTT (site GCGTCACCTAA)	0.0187

GAATAGCCATGGACCGGTTTTCCCGGTAATCCGTATTTGCA (site GAATTGCCTTG) yielded recombinant UMI read abundance (log10) of 0

###

The entries below are paired with their reported recombinant UMI read abundance (log10).
Procedure Details: recombinant UMI read abundance after kanamycin selection (control-corrected) (log10(CPM+1)); higher = more efficient recombination; extreme values may be limits of the assay; sequences stand for … in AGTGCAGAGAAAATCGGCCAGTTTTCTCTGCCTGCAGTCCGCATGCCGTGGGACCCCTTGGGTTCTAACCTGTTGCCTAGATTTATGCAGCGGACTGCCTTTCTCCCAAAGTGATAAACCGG…AGGTTGGTTTCACT; site = the 11-nt donor
The response must contain the number and no unit.

Chain	recombinant UMI read abundance (log10)
CTCCCTACATGGACCGGTTTTCCCGGTAATCCGTATTTGCG (site CTCCCTACTCC)	0.0203

Now examine the next entry.
recombinant UMI read abundance (log10) for ACCGGTGCATGGACCGGTTTTCCCGGTAATCCGTATTTGAG (site ACCGGTGCTCT) is 1.35

###

Each record here notes measured recombinant UMI read abundance (log10).
Procedure Details: recombinant UMI read abundance after kanamycin selection (control-corrected) (log10(CPM+1)); higher = more efficient recombination; extreme values may be limits of the assay; sequences stand for … in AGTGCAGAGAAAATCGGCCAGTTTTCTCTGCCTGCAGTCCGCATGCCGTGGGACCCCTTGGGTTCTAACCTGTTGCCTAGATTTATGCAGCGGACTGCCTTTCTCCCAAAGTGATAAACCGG…AGGTTGGTTTCACT; site = the 11-nt donor
Just the number, please, no unit attached.

Chain	recombinant UMI read abundance (log10)
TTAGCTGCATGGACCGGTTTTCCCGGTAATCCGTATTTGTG (site ATAGCTGCTCA)	0.183

// field: recombinant UMI read abundance (log10); key: ACTTTAACATGGACCGGTTTTCCCGGTAATCCGTATTTGGT (site ACTTTAACTAC) ; value = 0.85

Form field recombinant UMI read abundance (log10), entry GAAGCAGCATGGACCGGTTTTCCCGGTAATCCGTATTTGCT (site TAAGCAGCTAG) : 2.01

Lookup result for CAATGCCCATGGACCGGTTTTCCCGGTAATCCGTATTTGCT (site CAATCCCCTAG) ; measured recombinant UMI read abundance (log10): 0.246

For GGGGCACCATGGACCGGTTTTCCCGGTAATCCGTATTTGTA (site GGGGCACCTTC) the sequence record lists recombinant UMI read abundance (log10) as 0.0203

Input GTTCTCTCATGGACCGGTTTTCCCGGTAATCCGTATTTGTA (site TTTCTCTCTTA) . Output recombinant UMI read abundance (log10): 0.822

Given item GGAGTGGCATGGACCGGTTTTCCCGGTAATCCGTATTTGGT (site GGAGTGCCTAC) , the value recorded as its recombinant UMI read abundance (log10) is 0.377

For GGCGATCCATGGACCGGTTTTCCCGGTAATCCGTATTTGAA (site GGCTATCCTTT) the sequence record lists recombinant UMI read abundance (log10) as 0.141

Form field recombinant UMI read abundance (log10), entry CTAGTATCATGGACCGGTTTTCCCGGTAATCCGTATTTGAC (site CTACTATCTGT) : 0.925

recombinant UMI read abundance (log10) recorded for this sequence, TAGCATACATGGACCGGTTTTCCCGGTAATCCGTATTTGCA (site TAGAATACTTG) , is 0

Per the records, this sequence ( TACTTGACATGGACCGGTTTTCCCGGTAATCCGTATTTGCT (site TACTTGGCTAG) ) has recombinant UMI read abundance (log10) equal to 0.00865
